Test system: CAMK2G
Settings: concentration: 1 μM, replicates: in singlicate; n = 1;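 also: KINOMEscan kinase panel screen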
Answer each item with its documented %Inh.

Answered examples (3):
compound=CC(=O)c1c(C)c2cnc(Nc3ccc(N4CCNCC4)cn3)nc2n(C2CCCC2)c1=O experimental_endpoint=%Inh measured_result=0%
compound="COc1ccc(Nc2nccc(N3CCC(NC(=O)c4cc5ccccc5s4)C3)n2)cc1 (stereo not shown) [GSK1379738]" experimental_endpoint=%Inh measured_result=11%
compound="COC(=O)C(Cc1ccccc1)NC(=O)NC1CCN(c2ccnc(Nc3ccc(F)cc3)n2)C1 (stereo not shown) [GSK1379714]" experimental_endpoint=%Inh measured_result=24%

Sure, the documented %Inh for CNc1nc(-c2ccc3c(N)n[nH]c3c2)cc(N2C[C@@H](C(=O)NC3CCCCC3)OC[C@H]2C)n1 [GSK2375584] is 34%

----------
Tested on: ASK2
Construct: gene MAP3K6
Conditions: concentration: 1 μM, replicates: in singlicate; n = 1
Please go through the items and note down their %Inh.
One number for each entry, in %.

Here are 3 compounds together with their reported answers.
compound=CNc1cc(-c2ccc3c(N)n[nH]c3c2)nc(N)n1 experimental_endpoint=%Inh measured_result=0
compound=Cl.Cl.Cl.N#Cc1ccc(CCNc2nccc(-c3cccc(CN4CCNCC4)c3)n2)cc1 experimental_endpoint=%Inh measured_result=4
compound=O=C(Nc1n[nH]c2nc(-c3cccs3)c(Br)cc12)C1CCCC1 experimental_endpoint=%Inh measured_result=12

I'm hoping you can list %Inh for every compound here, please.
1. CC(C)c1ccc(O)cc1Nc1ccnc2ccc(C(F)(F)F)cc12
2. COc1cccc(CNC(=O)NC2CCN(c3ccnc(Nc4ccc(F)cc4)n3)C2)c1 (stereo not drawn)
3. COc1ccc(Nc2nccc(N3CCC(NC(=O)C(C)c4ccc(Cl)cc4)CC3)n2)cc1 (stereo not drawn)
4. COc1ccc(-c2coc3ccc(-c4nnc(C)o4)cc23)cc1
5. Cc1c(Cn2c(C)c(C)n3c(=O)cc(N4CCOCC4)nc23)cccc1C(F)(F)F
6. Fc1ccc(-c2nn3cccc(F)c3c2-c2ccncc2)cc1

Reply:
[0, 9, 0, 10, 0, 0]

----------
Test system: JAK1(JH1domain-catalytic)
Settings: concentration: 1 μM, replicates: in singlicate; n = 1
experimental_endpoint: %Inh (%)
One number for each entry, in %.

The following compounds have reported results that may help.
test_smiles=COc1nccc(-c2c(-c3ccc(F)cc3)ncn2CCCN2CCOCC2)n1 test_target=JAK1(JH1domain-catalytic) unit_of_measure=% measured_result=36
test_smiles=Cc1ccc(NC(=O)Nc2ccccc2)cc1-c1ccc(C(=O)Nc2ccncc2)cc1 test_target=JAK1(JH1domain-catalytic) unit_of_measure=% measured_result=31
test_smiles=Cc1c(Cn2c3ccccc3n3c(=O)cc(N4CCOCC4)nc23)cccc1C(F)(F)F test_target=JAK1(JH1domain-catalytic) unit_of_measure=% measured_result=13

Each compound below has a reported value. Please supply its %Inh.
1. COc1ccc(CSc2nnc(-c3ccc4c(c3)CCO4)o2)cc1
2. O=C(Nc1n[nH]c2nc(-c3cccs3)c(Br)cc12)C1CC1
3. O=C1NC(=O)C(c2ccc(Cl)cc2)=C1Nc1cccc(Cl)c1
4. CCc1ccc(-c2ccc3c(c2)-c2n[nH]cc2S(=O)(=O)N3C)cc1
5. O=C1NC(=O)C(c2ccc(Cl)cc2)=C1Nc1ccc(O)cc1
6. COc1cccc(C2=C(Nc3cc(Cl)c(O)c(Cl)c3)C(=O)NC2=O)c1

Reply:
[18, 13, 26, 18, 0, 12]

----------
Test system: EPHB3
Settings: concentration: 1 μM, replicates: in singlicate; n = 1
Consider the following compounds; for each one, report its %Inh.
Numbers only, in %.

test_smiles=COc1nccc(-c2c(-c3ccc(F)cc3)ncn2CCCN2CCOCC2)n1 test_target=EPHB3 experimental_endpoint=%Inh unit_of_measure=% measured_result=0
test_smiles=CC(C)c1ccc(O)cc1Nc1ccnc2ccc(C(F)(F)F)cc12 test_target=EPHB3 experimental_endpoint=%Inh unit_of_measure=% measured_result=13
test_smiles=CC(C)c1cc(-c2ccc3c(N)n[nH]c3c2)nc(N)n1 test_target=EPHB3 experimental_endpoint=%Inh unit_of_measure=% measured_result=29
test_smiles=CNc1cc(-c2ccc3c(N)n[nH]c3c2)nc(N)n1 test_target=EPHB3 experimental_endpoint=%Inh unit_of_measure=% measured_result=4
test_smiles=COc1ccc(Nc2nccc(-c3ccc(NC(=O)c4cc5cc(F)ccc5[nH]4)cc3)n2)cc1 test_target=EPHB3 experimental_endpoint=%Inh unit_of_measure=% measured_result=0
test_smiles=Cc1ccc(NC(=O)c2ccc(Cl)cc2)cc1-c1ccc(C(=O)Nc2ccncc2)cc1 test_target=EPHB3 experimental_endpoint=%Inh unit_of_measure=% measured_result=8
test_smiles=O=C1NC(=O)C(c2ccc(Cl)cc2)=C1Nc1cccc(Cl)c1 test_target=EPHB3 experimental_endpoint=%Inh unit_of_measure=% measured_result=0
test_smiles=COc1cccc(C2=C(Nc3cc(Cl)c(O)c(Cl)c3)C(=O)NC2=O)c1 test_target=EPHB3 experimental_endpoint=%Inh unit_of_measure=% measured_result=26

c1ccc(-c2ccnc3[nH]ccc23)cc1 on EPHB3 gives %Inh = 4

----------
Tested on: SRPK3
Conditions: concentration: 1 μM, replicates: in singlicate; n = 1
experimental_endpoint: %Inh (%)
Numbers only, in %.

Answered examples (3):
compound=CNCc1ccc2nc(NC(=O)c3ccc(C(C)(C)C)cc3)cn2c1 experimental_endpoint=%Inh measured_result=0
compound=COc1ccc(-c2coc3ccc(-c4nnc(C)o4)cc23)cc1 experimental_endpoint=%Inh measured_result=0
compound="Cl.Cl.Cl.N#Cc1ccc(CCNc2nccc(-c3cccc(CN4CCNCC4)c3)n2)cc1 [GSK2137462]" experimental_endpoint=%Inh measured_result=0

List the reported %Inh of each compound below.
1. Cc1ccc(-c2nc(Nc3ccncc3)c3ccccc3n2)s1 [GSK189015]
2. Cc1nccc(-c2c(-c3ccc(F)cc3)ncn2CCCN2CCOCC2)n1.Cl [SB-282975]
3. CNc1cc(-c2ccc3c(N)n[nH]c3c2)nc(N)n1 [GSK2224810]
4. Cc1ccccc1-c1cc(-c2c[nH]nc2-c2ccccn2)ccn1 [GW680061]
5. CC(C)c1cc(-c2ccc3c(N)n[nH]c3c2)nc(N)n1 [GSK2250882]

Reply:
18
0
0
4
29

// %Inh value for COC(=O)C(NC(=O)NC1CCN(c2ccnc(Nc3ccc(F)cc3)n2)C1)c1ccccc1 (stereo not drawn) [GSK1379712] : 0

----------
System: PAK3
Conditions: concentration: 1 μM, replicates: in singlicate; n = 1
Record form. Attribute: %Inh. Fill in for each entry.
Give bare numbers, in %.

Record %Inh for all entries; do not skip any.
1. Cc1nccc(-c2c(-c3ccc(F)cc3)ncn2CCCN2CCOCC2)n1.Cl
2. CCc1ccc(-c2ccc3c(c2)-c2n[nH]cc2S(=O)(=O)N3C)cc1

Reply:
1: 0; 2: 0

Quick one: give me %Inh for each item below, same order please.
1. COc1ccc(CSc2nnc(-c3ccc4nccn4c3)o2)cc1C(F)(F)F
2. Fc1ccc(-c2nn3cccc(F)c3c2-c2ccncc2)cc1
3. CCn1c(-c2ccccc2)nc2cnccc21

Reply:
0
20
14

----------
Tested on: LRRK2
Settings: concentration: 1 μM, replicates: in singlicate; n = 1
experimental_endpoint: %Inh
Give the figure together with its unit, number first.

molecule=Cc1ccc(NC(=O)Nc2ccc(Cl)cc2)cc1-c1ccc(C(=O)Nc2ccncc2)cc1 measured_result=0%

For the 3 molecules below, give their %Inh values.
1. COC(=O)c1cccc(NC(=O)NC2CCN(c3ccnc(Nc4ccc(F)cc4)n3)C2)c1 (stereo not shown)
2. COc1ccc2cc(-c3nc(-c4ccccc4C(C)C)[nH]c3-c3ccncc3)ccc2c1
3. Cc1cnc(N)c(/C=C/c2cncc(C(=O)NCCc3ccc(Cl)cc3Cl)c2)c1.Cl

Reply:
1. 5%
2. 13%
3. 0%

----------
Test system: YES
Construct: gene YES1
Conditions: concentration: 1 μM, replicates: in singlicate; n = 1
Consider the following molecules; for each one, report its %Inh.
One number for each entry, in %.

molecule="CC(=O)c1cccc(NC(=O)NC2CCN(c3ccnc(Nc4ccc(F)cc4)n3)C2)c1 (centres unmarked) [GSK1379710]" measured_result=0

Each molecule below has a reported value. Please supply its %Inh.
1. CCc1ccc(-c2ccc3c(c2)-c2n[nH]cc2S(=O)(=O)N3C)cc1
2. Fc1ccc(-c2nc3n(c2-c2ccncc2)CCS3)cc1 [GI98581]
3. COc1ccc(Nc2nccc(N3CCC(NC(=O)C(C)c4ccc(Cl)cc4)CC3)n2)cc1 (centres unmarked) [GSK1379812]
4. Cc1ccccc1Cn1ccn2c(=O)cc(N3CCOCC3)nc12 [GSK2269905]
5. CNc1nc(-c2ccc3c(N)n[nH]c3c2)cc(N2C[C@@H](C(=O)NC3CCCCC3)OC[C@H]2C)n1 [GSK2375584]

Reply:
0
0
0
19
14

Report %Inh for each item below.
1. Cc1ccccc1-c1cc(-c2c[nH]nc2-c2ccccn2)ccn1 [GW680061]
2. Cc1ccc(NC(=O)Nc2ccccc2F)cc1-c1ccc(C(=O)Nc2ccncc2)cc1 [GSK1398477]

Reply:
1: 15; 2: 26

Okay, here is my list. What is %Inh for each of these?
1. Cl.Cl.Cl.N#Cc1ccc(CCNc2nccc(-c3cccc(CN4CCNCC4)c3)n2)cc1 [GSK2137462]
2. COc1cccc(NC(=O)Nc2ccc(C)c(-c3ccc(C(=O)Nc4ccncc4)cc3)c2)c1 [GSK1398474]

Reply:
6
12

Required: %Inh, one value per molecule below.
1. COC(=O)C(Cc1ccccc1)NC(=O)NC1CCN(c2ccnc(Nc3ccc(F)cc3)n2)C1 (centres unmarked) [GSK1379714]
2. O=C1NC(=O)C(c2ccc(Cl)cc2)=C1Nc1ccc(O)cc1 [SB-340867]
3. NS(=O)(=O)c1cccc(N/C=C2\C(=O)Nc3ccc(S(=O)(=O)Cc4c(Cl)cccc4Cl)cc32)c1 [GSK398099]
4. O=c1cc(N2CCOCC2)nc2n(Cc3cccc(Cl)c3Cl)c3ccccc3n12 [GSK2299009]

Reply:
0
0
22
17

Attribution: paper PMC5540273
